Parameter: O.D. Reduction, Percent. Scope: all listed entries.
molecular target: SARS-HCoV spike protein (SARS-coronavirus (Tor-3 strain), UniProt P59594 14-1255); test: ELISA, OD on native virus against OD on heat-denatured virus

Example entries and their recorded answers appear below.
F26G8 (antibody, V domains shown) VH: VQLLESGAELVKPGASVKVSCKASGYTFTSYWIHWVKQRPGQGLEWIGEINPSNGRTNYNGNFESKATLTVDKSSNTAYMHLSSLTYEDSAVYHCTRLDYWGQGTTLTVSS VL: ELVMTQSPASLSVITGKKVTIRCISNTDIDDDLNWSQLKAGEPPKLLISEGNIFSPGVPSRFSSSGNGTDFVFTIENTLSEDVANNYCFQSDNMPFTFGSGTKLEIKR
29%
F26G18 (antibody, V domains shown) VH: LVQLEESGTVLPRPGASVKMSCKASGYTFTSYWMHWVKQRPGQGLEWIGAIYPGNSDTNYNQKFKGRATLTAVTSTSTASMELSSLTNEDSAVYYCTRDGYGSLYYYAMDFWGQGTSVTVSS VL: ELVMTQSPSSLSASLGDRVTISCRASQDISNYLNWYQQKPDGTVKLLIYYTSRLHAGVPSRFSGSGSGTDYSLTISNLEQEDIATYFCQQGYTLPYTFGGGTKLEIKR
72%
F26G19 (antibody, V domains shown) VH: EVQLEESGTVLARPGASVKMSCKASGYTFTTYRMHWIKQRPGQGLEWIGAIYPGNSDTTYNQKFKDKAKLTAVTSTSSAYMELSSLTNEDSAVYFCTREGIPQLLRTLDYWGQGTSVTVSS VL: DILMTQSPSSLSASLGERVSLTCRASQEISGYLSWLQEKPDGTIKRLIYAASTLDSGVPKRFSGSRSGSDYSLTISSLESEDFADYYCLQYVSYPWTFGGGTKLEIKR
83%

# ---- query binder ----
Kindly note the recorded O.D. Reduction, Percent for F26G6 (antibody, V domains shown) VH: QVQLQQPGAELVKPGASVKVSCKASGYTFTNYWIHWVKQRPGQGLEWIGEINPGNGRTNYNGNFMNKATLTVDKSSNTAYMQLSSLTSEDSAVYHCARLDYWGQGTTLTVSS VL: ELVMTQSPASLSVATGKKVTIRCISSTDIDDDMNWYQQKAGKPPKLLISEGNIFSPGVPSRFSSSGNGTDFVFTVENTLSEDVADNYCLQSDNMPFTFGSGTKLGIKR , which is 62%
